System: OVCAR-8 ovarian
Assay: NCI-60 one-dose screen, 48 h (100 = growth as untreated, 0 = no growth, -100 = all killed)
Details: 10 µM unless noted
The panel holds about 83,000 compounds, 20% with a hit somewhere; the sample as a whole holds those more often.
Provide the recorded growth for the entries that follow.
The response must be a number in % with no trailing unit.

Retrieve growth on OVCAR-8 ovarian; query NC(=O)C(Br)CBr (centres undefined)
-24.1

Retrieve growth on OVCAR-8 ovarian; query "COc1ccc(-c2ccc(OC)c(OC)c2OC)cc1"
21.7

Retrieve growth on OVCAR-8 ovarian; query CC(N)Cc1ccc(O)cc1 (centres undefined)
101

Retrieve growth on OVCAR-8 ovarian; query "C=CCC1(CC)C(=O)NC(=S)NC1=O"
100

Retrieve growth on OVCAR-8 ovarian; query O=CN1N=C(c2ccc3c(c2)OCO3)CC1c1sc(N(CCCl)CCCl)nc1Cl (centres undefined)
92.9

Retrieve growth on OVCAR-8 ovarian; query OC1(c2ccc(Cl)cc2Cl)c2ccccc2C2=NCCN21 (centres undefined)
102

Retrieve growth on OVCAR-8 ovarian; query O=[As]c1ccc(C(=O)c2ccc(Oc3ccccc3)cc2)cc1 (centres undefined)
-97.3

Retrieve growth on OVCAR-8 ovarian; query "C/C(=N/OC(=O)N(C)C)c1ccc(Cl)cc1Cl"
106

Retrieve growth on OVCAR-8 ovarian; query "NC(=O)C(Cl)Cl"
99.9

Retrieve growth on OVCAR-8 ovarian; query "O=[N+]([O-])c1ccccc1N1CCNCC1"
107

Retrieve growth on OVCAR-8 ovarian; query "CO[C@@H](c1ccccc1Cl)[C@H](C)OC(N)=O"
103

Retrieve growth on OVCAR-8 ovarian; query "FC(F)=C(F)c1ccccc1"
104

Retrieve growth on OVCAR-8 ovarian; query "CC1(C)N=C(N)N=C(N)N1c1ccc(CNC(=O)Nc2ccc(S(=O)(=O)F)c(Cl)c2)c(Cl)c1"
25.4

Retrieve growth on OVCAR-8 ovarian; query O=S(=O)(Cl)c1ccccc1 (tested in a mixture with another compound)
108

Retrieve growth on OVCAR-8 ovarian; query "O=[N+]([O-])c1ccc2cnn(CSP(=S)(c3ccccc3)c3ccccc3)c2c1"
82.4

Retrieve growth on OVCAR-8 ovarian; query CCC1CN1P(=O)(OCCOC)N1CC1CC (centres undefined)
105

Retrieve growth on OVCAR-8 ovarian; query "CN=C(NN)NN"
99.3

Retrieve growth on OVCAR-8 ovarian; query CCCCCCCCCCCCOc1ccc(C(=O)Oc2ccc(CSP3(=O)OCC4OC(n5cnc6c(N)ncnc65)C(F)C4OP(=O)(O)OCC4OC(n5ccc(=O)[nH]c5=O)C(F)C4O3)cc2)cc1 (centres undefined)
109

Retrieve growth on OVCAR-8 ovarian; query "Cc1cc(NC(=O)CCc2ccc(N3C(N)=NC(N)=NC3(C)C)cc2)ccc1S(=O)(=O)F"
40.9

* * *

System: UO-31 renal
Assay: NCI-60 one-dose screen, 48 h (100 = growth as untreated, 0 = no growth, -100 = all killed)
Settings: 10 µM unless noted
Description: Growth inhibition of the UO-31 human tumor cell line is measured as a screen for anti-cancer activity. Cells are grown in 96 well plates and exposed to the test compound for 48 hours. Compounds are tested at a single concentration, which is 10^-5 M for most compounds. The reported endpoint is percent growth (GI% or GIPRCNT), where numbers from 0 - 100% represent growth inhibition, and numbers from -100% - 0 represent cell death. For example, a value of 40 represents 60% growth inhibition. […]
This is part of a sample that, as a whole, favours compounds with a hit. Of some 83,000 tested, about 20% had one in any assay.
Provide the recorded growth for the entries that follow.
The response must be a number in % with no trailing unit.

Retrieve growth on UO-31 renal; query O=S(=O)(Cl)c1ccccc1 (tested in a mixture with another compound)
85

Retrieve growth on UO-31 renal; query "O=C(CF)N(O)c1ccc(/C=C/c2ccccc2)cc1"
36.2

Retrieve growth on UO-31 renal; query "C/C(=C\c1cc(C(F)(F)F)n(-c2ccc(N)cc2)n1)[C@@H]1C[C@@H]2O[C@]2(C)CCC[C@H](C)[C@H](O)[C@@H](C)C(=O)C(C)(C)[C@@H](O)CC(=O)O1"
26.6

Retrieve growth on UO-31 renal; query "ClCCN(CCCl)c1ccc(C=NCCc2c[nH]c3ccccc23)cc1"
60.6

Retrieve growth on UO-31 renal; query O=C(CC1(O)C(=O)Nc2ccc(F)cc21)c1ccc(C(=O)NCC2CCC3(CC2)OOC2(CCCCC2)OO3)cc1 (stereo unspecified)
-81.7

Retrieve growth on UO-31 renal; query Cc1ccc2oc(=O)c3c(c2c1)OC(N)=C(C#N)C3c1ccco1 (stereo unspecified)
77.7

Retrieve growth on UO-31 renal; query "CO[C@@H]1[C@H](OC(=O)NC(=O)CCl)CC[C@]2(CO2)[C@H]1[C@@]1(C)O[C@@H]1CC=C(C)C"
52.6

Retrieve growth on UO-31 renal; query "CC1(C)N=C(N)N=C(N)N1c1ccc(CCCCc2ccc(S(=O)(=O)F)cc2)cc1"
104

Retrieve growth on UO-31 renal; query "Cc1cc(NC(=O)/C=C/c2ccc([N+](=O)[O-])cc2)ccc1S(=O)(=O)F"
71.8

Retrieve growth on UO-31 renal; query CC1COC(=O)C1 (stereo unspecified)
90.4

Retrieve growth on UO-31 renal; query "O=C1NC(=O)C(Cc2ccccc2)(Cc2ccccc2)C(=O)N1"
78.7
